# half-life at 1 μM values compiled below
measurementNotes: Evaluation of metabolic stability in human liver microsomes
Type: in vitro ADME
assayConditions: human, human liver microsomes, pH 7.4, human liver microsomes 0.5 mg/mL, 1 μM test compound, 2 mM NADPH, 37° C., 0-30 minutes; Experiment 2 (repeat); read-out: t1/2 (minutes) Experiment 2
In your response, put the unit directly after the numeric value.

A selection of reference data follows.
[2H]C([2H])([2H])C([2H])(N(CC[C@H](c1ccccc1)c1cc(C)ccc1O)C([2H])(C([2H])([2H])[2H])C([2H])([2H])[2H])C([2H])([2H])[2H] :: 15.6 min
Cc1ccc(O)c(C(CCN(C(C)C)C(C)C)c2ccccc2)c1 (stereo not shown) [Tolterodine, reference compound] :: 14.2 min
[2H]C([2H])([2H])c1ccc(O)c([C@H](CCN(C(C)C)C(C)C)c2ccccc2)c1 :: 28.9 min

# context switch: different molecule, same half-life at 1 μM
Prompt: Consider the molecule shown here: `[2H]C([2H])([2H])c1ccc(O)c([C@H](CCN(C([2H])(C([2H])([2H])[2H])C([2H])([2H])[2H])C([2H])(C([2H])([2H])[2H])C([2H])([2H])[2H])c2ccccc2)c1` What is its recorded half-life at 1 μM?
Completion: 28 min
